system: HCC1937; test: normalised response (% of control), CellTox Green; higher = less cell death (100 = DMSO, 0 = benzethonium chloride kill control); conditions: incubation time: 72 h
quantity: normalised response (%)
One number for each entry, in %.

Please go through the list and note normalised response for each compound.
1. CC(C)(C)Cn1c(N)nc2ccc(-c3[nH]c(C(C)(C)C)nc3-c3ccc(F)cc3)nc21 (100 nM)
2. CO[C@H]1C[C@@H]2CC[C@@H](C)[C@@](O)(O2)C(=O)C(=O)N2CCCC[C@H]2C(=O)O[C@H]([C@H](C)C[C@@H]2CC[C@@H](O)[C@H](OC)C2)CC(=O)[C@H](C)/C=C(\C)[C@@H](O)[C@@H](OC)C(=O)[C@H](C)C[C@H](C)/C=C/C=C/C=C/1C [Sirolimus] (10 nM)

1: 105; 2: 97.7

---

system: BT-474; test: normalised response (% of control), CellTiter-Glo; higher = more viable cells (100 = DMSO, 0 = benzethonium chloride kill control); conditions: incubation time: 72 h
I'd appreciate it if you could supply normalised response values for the items below.
Numbers only, in %.

// known answers, use as guide
Nc1nc(Cl)nc2c1ncn2[C@@H]1O[C@H](CO)[C@@H](O)[C@@H]1F [Clofarabine] (10 nM); 102
CCN(CC)CCOc1ccc(C(=C(Cl)c2ccccc2)c2ccccc2)cc1 [Clomifene] (10 nM); 107
NC(=O)c1cccc2cn(-c3ccc([C@@H]4CCCNC4)cc3)nc12 [MK-4827] (10 nM); 110
CN1CCN(c2nc(C3=C(c4c[nH]c5ccccc45)C(=O)NC3=O)c3ccccc3n2)CC1 [Sotrastaurin] (1 nM); 90.6

Please go through the list and note normalised response for each compound.
1. Cn1cc(C[C@@H](N)C(=O)O)c2ccccc21 [1-methyl-D-tryptophan] (500 nM)
2. CCc1cnn2c(NCc3ccc[n+]([O-])c3)cc(N3CCCC[C@H]3CCO)nc12 [Dinaciclib] (1 nM)
3. CN1CCc2c(c3ccccc3n2Cc2ccc(C(=O)NO)cc2)C1 [Tubastatin A] (1000 nM)
4. CC(C)C(=O)Nc1ccc([N+](=O)[O-])c(C(F)(F)F)c1 [Flutamide] (1000 nM)
5. CC(C)n1nc(-c2ccc3oc(N)nc3c2)c2c(N)ncnc21 [INK128] (1 nM)
6. Cn1cc(C[C@@H](N)C(=O)O)c2ccccc21 [1-methyl-D-tryptophan] (5 nM)

1. 97.6
2. 95.7
3. 91.7
4. 103
5. 88.9
6. 100

---

system: CAL-120; experiment: normalised response (% of control), CellTiter-Glo; higher = more viable cells (100 = DMSO, 0 = benzethonium chloride kill control); settings: incubation time: 72 h
quantity: normalised response (%)
One number for each entry, in %.

Cn1nnc2c(C(N)=O)ncn2c1=O [Temozolomide] (1 nM); 99.5
Cn1cc(C[C@@H](N)C(=O)O)c2ccccc21 [1-methyl-D-tryptophan] (5 nM); 95.1
Nc1nc(Cl)nc2c1ncn2[C@@H]1O[C@H](CO)[C@@H](O)[C@@H]1F [Clofarabine] (1000 nM); 75.3

# next compound below
For the compound C[C@]12C=CC(=O)C=C1CC[C@@H]1[C@@H]2C(=O)C[C@@]2(C)[C@H]1CC[C@]2(O)C(=O)CO [Prednisone] (10 nM) , give its measured normalised response value.
104
